- System: CP250
- Experiment: qHTS profiling for inhibitors of Plasmodium falciparum proliferation (AID 504749); further: nearly all actives have a fitted effect of over 60% in size
- Stated conditions: P. falciparum in erythrocytes, SYBR Green DNA, 72 h; series mostly up to 28.7 µM
Results filed as inconclusive are left out. Activity calls are given as the source filed them. The call rests on the fitted dose curve; in most records, active means well fitted inhibition curve with a large enough effect; inconclusive means small, poorly fitted or top-dose-only effect; inactive means flat fitted curve, though single readings scatter.
Possible outcomes: True = active, False = inactive

{"Molecule": "CCc1nc(N)nc(N)c1-c1ccc(Cl)cc1", "Experimental target": "CP250", "Assigned category": "False"}
{"Molecule": "COC1=C(OC)C(=O)C(CCCCCCCCCCO)=C(C)C1=O", "Experimental target": "CP250", "Assigned category": "False"}
{"Molecule": "Cc1c(OCC(F)(F)F)ccnc1CS(=O)c1nc2ccccc2[nH]1 (stereo not drawn)", "Experimental target": "CP250", "Assigned category": "False"}
{"Molecule": "O=C1c2ccccc2-c2n[nH]c3cccc1c23", "Experimental target": "CP250", "Assigned category": "False"}
{"Molecule": "CC1(C)NC(=O)N(c2ccc([N+](=O)[O-])c(C(F)(F)F)c2)C1=O", "Experimental target": "CP250", "Assigned category": "False"}
{"Molecule": "CCN(CC)CCOc1ccc(Cc2ccccc2)cc1", "Experimental target": "CP250", "Assigned category": "False"}
{"Molecule": "COc1cc2c(cc1OC)C1CC(=O)C(CC(C)C)CN1CC2 (stereo not drawn)", "Experimental target": "CP250", "Assigned category": "False"}
{"Molecule": "CNC[C@@H](O)[C@@H](O)[C@H](O)[C@H](O)CO", "Experimental target": "CP250", "Assigned category": "False"}
{"Molecule": "CS(=O)(=O)OCCCCOS(C)(=O)=O", "Experimental target": "CP250", "Assigned category": "False"}
{"Molecule": "O=C(O)c1cc(=O)c2c(OCC(O)COc3cccc4oc(C(=O)O)cc(=O)c34)cccc2o1", "Experimental target": "CP250", "Assigned category": "False"}
{"Molecule": "Cc1cc2cc3c(C)cc(=O)oc3c(C)c2o1", "Experimental target": "CP250", "Assigned category": "False"}
{"Molecule": "C[Se]CCC(N)C(=O)O (stereo not drawn)", "Experimental target": "CP250", "Assigned category": "False"}
{"Molecule": "CN(C)C(=O)COC(=O)Cc1ccc(OC(=O)c2ccc(N=C(N)N)cc2)cc1", "Experimental target": "CP250", "Assigned category": "False"}
{"Molecule": "Clc1ccc(C(Cn2ccnc2)OCc2ccsc2Cl)c(Cl)c1 (stereo not drawn)", "Experimental target": "CP250", "Assigned category": "True"}
{"Molecule": "CCCCc1ccc2nc(NC(=O)OC)[nH]c2c1", "Experimental target": "CP250", "Assigned category": "False"}
{"Molecule": "O=C(O)CCNC(=O)c1ccc(N=Nc2ccc(O)c(C(=O)O)c2)cc1", "Experimental target": "CP250", "Assigned category": "False"}
{"Molecule": "Cc1ccc(C)c(OCCCC(C)(C)C(=O)O)c1", "Experimental target": "CP250", "Assigned category": "False"}
{"Molecule": "CN(C)c1ccc2nc3ccc(=[N+](C)C)cc-3sc2c1", "Experimental target": "CP250", "Assigned category": "True"}
{"Molecule": "Cc1cc(=O)c2c(O)c3c(O)cc(=O)c4c3c3c(cc(O)c1c23)C(C)(C)C=4O", "Experimental target": "CP250", "Assigned category": "True"}
{"Molecule": "CC(C)[C@H](N)C(=O)OCCOCn1cnc2c(=O)[nH]c(N)nc21", "Experimental target": "CP250", "Assigned category": "False"}
{"Molecule": "CCC1=C(C)CN(C(=O)NCCc2ccc(S(=O)(=O)NC(=O)NC3CCC(C)CC3)cc2)C1=O (stereo not drawn)", "Experimental target": "CP250", "Assigned category": "False"}
{"Molecule": "O=C(O)c1cccnc1Nc1cccc(C(F)(F)F)c1", "Experimental target": "CP250", "Assigned category": "False"}
{"Molecule": "C=C(c1ccc(C(=O)O)cc1)c1cc2c(cc1C)C(C)(C)CCC2(C)C", "Experimental target": "CP250", "Assigned category": "False"}
{"Molecule": "Cc1cccc(C)c1OCC(=O)N[C@@H](Cc1ccccc1)[C@@H](O)C[C@H](Cc1ccccc1)NC(=O)[C@H](C(C)C)N1CCCNC1=O", "Experimental target": "CP250", "Assigned category": "True"}
{"Molecule": "CCC(C)(Oc1ccc(C2(c3ccc(OC(C)(CC)C(=O)O)cc3)CCCCC2)cc1)C(=O)O (stereo not drawn)", "Experimental target": "CP250", "Assigned category": "False"}
{"Molecule": "N[C@@H](Cc1cc(I)c(Oc2cc(I)c(O)c(I)c2)c(I)c1)C(=O)O", "Experimental target": "CP250", "Assigned category": "False"}
{"Molecule": "COc1ccc2cc([C@H](C)C(=O)O)ccc2c1", "Experimental target": "CP250", "Assigned category": "False"}
{"Molecule": "CNC[C@H](O)c1ccc(O)c(O)c1", "Experimental target": "CP250", "Assigned category": "False"}
{"Molecule": "CCCCN(CCCC)CCC(O)c1cc2c(Cl)cc(Cl)cc2c2cc(C(F)(F)F)ccc12 (stereo not drawn)", "Experimental target": "CP250", "Assigned category": "True"}
{"Molecule": "C=CCc1cc(OC)c(O)c(C(=O)NCCO)c1", "Experimental target": "CP250", "Assigned category": "False"}
{"Molecule": "COC(=O)C1=C(C)NC(C)=C(C(=O)OCCCN2CCC(c3ccccc3)(c3ccccc3)CC2)C1c1cccc([N+](=O)[O-])c1 (stereo not drawn)", "Experimental target": "CP250", "Assigned category": "True"}
{"Molecule": "Nc1ccn([C@@H]2O[C@H](CO)[C@@H](O)C2O)c(=O)n1 (stereo partly drawn)", "Experimental target": "CP250", "Assigned category": "False"}
{"Molecule": "CN1CCC(=C2c3ccccc3CCc3sccc32)CC1", "Experimental target": "CP250", "Assigned category": "False"}

* * *

- Experiment: Quantitative High-Throughput drug screen in 47 multiple myeloma cell lines against the NCATS MIPE library collection: PCM6_Riken cell viability assay (AID 1919870); further: nearly all actives have a fitted effect of over 30% in size; further: potency means the concentration at half of the fitted maximal effect
- Stated conditions: CellTiter-Glo ATP, 48 h; series mostly up to 45.8 µM
Records with an inconclusive call do not appear. Calls of active or inactive are those of the source. The call rests on the fitted dose curve; in most records, active means well fitted cell-killing curve with a large enough effect; inconclusive means small, poorly fitted or top-dose-only effect, or effect the other way; inactive means no such curve, though single readings can be large or run the other way.
Metric name: Potency

{"Compound": "Oc1ccc2ccccc2c1SSc1c(O)ccc2ccccc12", "Endpoint result": "13.2 µM (active)"}
{"Compound": "CC(C)Oc1ccc2c(=O)c(-c3ccccc3)coc2c1", "Endpoint result": "inactive"}
{"Compound": "COC(=O)N[C@H](C(=O)N[C@@H](Cc1ccccc1)[C@@H](O)CN(Cc1ccc(-c2ccccn2)cc1)NC(=O)[C@@H](NC(=O)OC)C(C)(C)C)C(C)(C)C", "Endpoint result": "9.35 µM (active)"}
{"Compound": "O=P(O)(O)C(O)(Cn1ccnc1)P(=O)(O)O", "Endpoint result": "inactive"}
{"Compound": "Cc1cccc(C#Cc2ccccc2)n1", "Endpoint result": "inactive"}
{"Compound": "Clc1ccc(C(Cn2ccnc2)OCc2ccsc2Cl)c(Cl)c1 (configuration not stated)", "Endpoint result": "16.6 µM (active)"}
{"Compound": "Nc1ccn([C@@H]2O[C@H](CO)[C@@H](O)C2O)c(=O)n1 (some centres not stated)", "Endpoint result": "inactive"}
{"Compound": "Cc1nc(Nc2ncc(C(=O)Nc3c(C)cccc3Cl)s2)cc(N2CCN(CCO)CC2)n1", "Endpoint result": "5.26 µM (active)"}
{"Compound": "COc1ccc(C2(C#N)CCC(C(=O)O)CC2)cc1OC1CCCC1 (configuration not stated)", "Endpoint result": "16.6 µM (active)"}
{"Compound": "COCCCOc1ccnc(CS(=O)c2nc3ccccc3[nH]2)c1C (configuration not stated)", "Endpoint result": "inactive"}
{"Compound": "Cc1ccc(C)c(OCCCC(C)(C)C(=O)O)c1", "Endpoint result": "8.33 µM (active)"}
{"Compound": "CC(=O)NC[C@H]1CN(c2ccc(N3CCOCC3)c(F)c2)C(=O)O1", "Endpoint result": "inactive"}
{"Compound": "CN(C)c1ccc(O)c2c1C[C@H]1C[C@H]3[C@H](N(C)C)C(=O)C(C(N)=O)=C(O)[C@@]3(O)C(=O)C1=C2O", "Endpoint result": "18.7 µM (active)"}
{"Compound": "CC1(C)C(=O)N(CCN2CCC(C(=O)c3ccc(F)cc3)CC2)c2ccccc21", "Endpoint result": "inactive"}
{"Compound": "Oc1ccc(-c2nc(-c3ccc(F)cc3)c(-c3ccncc3)[nH]2)cc1", "Endpoint result": "20.9 µM (active)"}
{"Compound": "CC(C)c1nc(CN(C)C(=O)N[C@H](C(=O)N[C@@H](Cc2ccccc2)C[C@H](O)[C@H](Cc2ccccc2)NC(=O)OCc2cncs2)C(C)C)cs1", "Endpoint result": "inactive"}
{"Compound": "O=C(NCCO[N+](=O)[O-])c1cccnc1", "Endpoint result": "inactive"}
{"Compound": "Cc1nc(-c2ccc(OCC(C)C)c(C#N)c2)sc1C(=O)O", "Endpoint result": "inactive"}
{"Compound": "Cc1cc2cc3c(C)cc(=O)oc3c(C)c2o1", "Endpoint result": "20.9 µM (active)"}
{"Compound": "C[C@@H](c1ncncc1F)[C@](O)(Cn1cncn1)c1ccc(F)cc1F", "Endpoint result": "1.66 µM (active)"}
{"Compound": "CCN(CC)C(=S)SSC(=S)N(CC)CC", "Endpoint result": "0.001 µM (active)"}
{"Compound": "COc1c(O)cc2c(c1O)[C@@H]1O[C@H](CO)[C@@H](O)[C@H](O)[C@H]1OC2=O", "Endpoint result": "inactive"}
{"Compound": "O=c1c(O)c(-c2cc(O)c(O)c(O)c2)oc2cc(O)cc(O)c12", "Endpoint result": "inactive"}
{"Compound": "C[C@H](Cc1ccc(O)c(O)c1)[C@@H](C)Cc1ccc(O)c(O)c1", "Endpoint result": "18.7 µM (active)"}
{"Compound": "COc1cc(C(C)=O)ccc1OCCCN1CCC(c2noc3cc(F)ccc23)CC1", "Endpoint result": "18.7 µM (active)"}
{"Compound": "Cc1cc2c(s1)Nc1ccccc1N=C2N1CCN(C)CC1", "Endpoint result": "inactive"}
{"Compound": "Nc1cc(C(Cl)=C(Cl)Cl)c(S(N)(=O)=O)cc1S(N)(=O)=O", "Endpoint result": "inactive"}
